Biological target: Syk kinase (Homo sapiens)
Construct: purchased
Test: Syk kinase inhibition, Caliper LabChip off-chip mobility-shift kinase assay
Format: biochemical
Details: read-out: Syk Enzyme IC50
ENDPOINT: IC50 (nM)

{"MOLECULE": "COc1cncc(-c2cc3cc[nH]c(=O)c3c(Nc3ccc4c(c3)C3CC4CN(C(=O)C(F)(F)F)C3)n2)n1 (stereo not shown) [compound 95]", "SYSTEM_TESTED": "Syk kinase (Homo sapiens)", "ENDPOINT": "IC50", "UNIT_SPEC": "nM", "OBSERVED_MEASUREMENT": 2370}
{"MOLECULE": "O=c1[nH]ccc2cc(Nc3ccccn3)nc(NC3CCOC3)c12 (stereo not shown) [compound 287]", "SYSTEM_TESTED": "Syk kinase (Homo sapiens)", "ENDPOINT": "IC50", "UNIT_SPEC": "nM", "OBSERVED_MEASUREMENT": 148}

P = Cc1cc(Nc2nc(C(C)C)cc3cc[nH]c(=O)c23)ccc1N1CCO[C@H](C)C1 [compound 226]
Q = Cc1ncc(-c2cc3cc[nH]c(=O)c3c(Nc3ccc([C@H]4CC[C@H](N5CCOCC5)CC4)cc3)n2)cn1 [compound 1]
Q: Consider entries P and Q . Which has the numerically lower IC50? Please identify the chosen entry by its label.
Ans: Q
(Q: 49 nM, P: 1740 nM)

---

Target: Syk kinase (Homo sapiens)
Construct: purchased
Test: Syk kinase inhibition, Caliper LabChip off-chip mobility-shift kinase assay
Type: biochemical
Settings: read-out: Syk Enzyme IC50
pIC50: −log10 of the molar value.
ENDPOINT: pIC50

Field: example entries. Status: answers known.
{"COMPOUND": "Cn1ccc2cc(Nc3cnccn3)nc(Nc3ccc(C(N)=O)cc3)c2c1=O", "pIC50": 7.00}
{"COMPOUND": "[2H]C([2H])([2H])n1ccc2cc(Nc3cc(C)c(Cl)cn3)nc(NC(C)(C)C)c2c1=O", "pIC50": 6.30}
{"COMPOUND": "O=c1[nH]ccc2cc(C3CCSCC3)nc(Nc3ccc(N4CCOCC4)cc3)c12", "pIC50": 6.15}
{"COMPOUND": "Cc1ccnc(Nc2cc3cc[nH]c(=O)c3c(Nc3ccc(N4CCOCC4)cc3)n2)c1", "pIC50": 7.82}
{"COMPOUND": "CCn1ccc2cc(Nc3cnc(C)cn3)nc(N[C@H]3CC[C@@H](O)CC3)c2c1=O", "pIC50": 6.71}
{"COMPOUND": "Cc1ccnc(Nc2cc3cc[nH]c(=O)c3c(Nc3ccc(C4CCN(C5CC5)CC4)c(C)c3)n2)c1", "pIC50": 7.49}

P = COCC(C)N1CCC(c2ccc(Nc3nc(-c4cncc(OC)n4)cc4cc[nH]c(=O)c34)cc2C)CC1 (stereo not shown)
Q = COc1cncc(-c2cc3cc[nH]c(=O)c3c(Nc3ccc(CCN4CCN(C(C)C)CC4)cc3)n2)n1
R = CCN1CCN(CCc2ccc(Nc3nc(Nc4ccc(Cl)cn4)cc4cc[nH]c(=O)c34)cc2)CC1
S = CNS(=O)(=O)c1ccc(Nc2nc(Nc3cnccn3)cc3ccn(C)c(=O)c23)cc1
Q: Rank the items in ascending order with respect to pIC50. Give the labels in the order specified.
Ans: S, R, Q, P

1 = Cn1ccc2cc(Nc3cnccn3)nc(NC(C)(C)C)c2c1=O [compound 463]
2 = CCN1CCN(C2CCC(c3ccc(Nc4nc(-c5cncnc5)cc5cc[nH]c(=O)c45)cc3)CC2)CC1 (stereo not shown)
Q: Which is greater in pIC50, the first item 1 or the second item 2 ? Use the label to indicate which entry you chose.
Ans: 1
(1: 7.27, 2: 6.94)

1 = CN1CCN([C@H]2CC[C@H](c3ccc(Nc4nc(-c5cncnc5)cc5cc[nH]c(=O)c45)cc3)CC2)CC1
2 = [2H]C([2H])([2H])n1ccc2cc(Nc3cc(C)c(F)cn3)nc(NC(C)(C)C)c2c1=O
Q: Hi! Which is lower in terms of pIC50, the first one 1 or the second one 2 ? Let me know the label of the one you choose.
Ans: 2
